assay name: Caspase-3/7 induction in CHO-K1 cells by small molecules, qHTS cell viability counter screen (AID 1346979); also: nearly all actives have a fitted effect of over 35% in size; also: potency is read from the fitted curve at half-maximal effect
conditions used: CellTiter-Fluor fluorescence, 17 h; series mostly up to 92.4 µM
Inconclusive results are not listed. Active and inactive are the calls of the source. Calls follow the shape of the dose curve; as a rule, active = well fitted cell-killing curve with a large enough effect in the repeat runs; inconclusive = weak or mixed curves, or effect the other way; inactive = no such curve, though single readings can be large or run the other way.

- compound: "C=C1C[C@@]23CC[C@H]4[C@@](C)(CCC[C@@]4(C)C(=O)O[C@@H]4O[C@H](CO)[C@@H](O)[C@H](O)[C@H]4O)[C@@H]2CC[C@]1(O[C@@H]1O[C@H](CO)[C@@H](O)[C@H](O[C@@H]2O[C@H](CO)[C@@H](O)[C@H](O)[C@H]2O)[C@H]1O[C@@H]1O[C@H](CO)[C@@H](O)[C@H](O)[C@H]1O)C3"
  Potency: "inactive"
- compound: "c1ccc2c(c1)CCc1ccccc1N2"
  Potency: "inactive"
- compound: "CC1=C(Br)C(=O)C(Br)=C/C1=C(/c1ccccc1S(=O)(=O)O)c1cc(Br)c(O)c(Br)c1C"
  Potency: "18.6 µM (active)"
- compound: "c1cc(N(CC2CO2)CC2CO2)ccc1Cc1ccc(N(CC2CO2)CC2CO2)cc1 (stereo unspecified)"
  Potency: "54.5 µM (active)"
- compound: "CC/C=C1/OC(=O)c2ccccc21"
  Potency: "inactive"
- compound: "CC1(CN2CCC(n3c(=O)[nH]c4ccccc43)CC2)OCc2ccccc2-n2cccc21 (stereo unspecified)"
  Potency: "29.8 µM (active)"
- compound: "CCOC(=O)OC(C)OC(=O)[C@@H]1N2C(=O)[C@@H](NC(=O)[C@H](N)c3ccccc3)[C@H]2SC1(C)C (stereo partly specified)"
  Potency: "inactive"
- compound: "CCCCCCC(C)(C)C(=O)O"
  Potency: "inactive"
- compound: "O=Cc1c2ccccc2c(Cl)c2ccccc12"
  Potency: "23.7 µM (active)"
- compound: "C=C(C)CCCC(C)CCO (stereo unspecified)"
  Potency: "inactive"
- compound: "Cc1ccc(C(C)(C)O)cc1"
  Potency: "inactive"
- compound: "CCCCC(CC)COP(=O)(O)O (stereo unspecified)"
  Potency: "inactive"
- compound: "O=[N+]([O-])c1ccc(O/N=C/c2cc(Br)c(O)c(Br)c2)c([N+](=O)[O-])c1"
  Potency: "15.3 µM (active)"
- compound: "CCOC(=O)c1ccc(O)c(O)c1"
  Potency: "inactive"
- compound: "OCCN1CCN(CCCN2c3ccccc3Sc3ccc(Cl)cc32)CC1"
  Potency: "29.8 µM (active)"
- compound: "CC(=O)c1ccc([N+](=O)[O-])cc1"
  Potency: "inactive"
- compound: "CCC(OCCCOC)OC(C)=O (stereo unspecified)"
  Potency: "inactive"
- compound: "CC(=O)OCC(=O)NCCCOc1cccc(CN2CCCCC2)c1"
  Potency: "inactive"
- compound: "CC(=O)OCC[N+](C)(C)C"
  Potency: "inactive"
- compound: "O=C(OC(=O)c1ccccc1)c1ccccc1"
  Potency: "inactive"
- compound: "COC(=O)C1=C(C)NC(C)=C(C(=O)O[C@@H]2CCCN(Cc3ccccc3)C2)[C@@H]1c1cccc([N+](=O)[O-])c1"
  Potency: "29.8 µM (active)"
- compound: "C=CC(C)(CCC=C(C)C)OC(=O)CC(C)C (stereo unspecified)"
  Potency: "inactive"
- compound: "CCCCCCCCC(CCCCCC)C(=O)O (stereo unspecified)"
  Potency: "inactive"
- compound: "Nc1nnc(-c2ccc([N+](=O)[O-])o2)o1"
  Potency: "54.5 µM (active)"
- compound: "O=C(Cn1ccnc1[N+](=O)[O-])NCCO"
  Potency: "inactive"
- compound: "O=c1cc(-c2ccccc2)oc2ccc3ccccc3c12"
  Potency: "54.5 µM (active)"
- compound: "O=C(O)c1cccc(-c2noc(-c3ccccc3F)n2)c1"
  Potency: "inactive"
- compound: "CC(C)COCC(CN(Cc1ccccc1)c1ccccc1)N1CCCC1 (stereo unspecified)"
  Potency: "29.8 µM (active)"
- compound: "OC[C@H]1O[C@@H](n2cnc3c(=S)nc[nH]c32)[C@H](O)[C@@H]1O"
  Potency: "inactive"
- compound: "COC(=O)[C@H]1[C@H]2C[C@@H]3c4[nH]c5cc(OC)ccc5c4CCN3C[C@H]2C[C@@H](OC(=O)/C=C/c2ccc(O)c(OC)c2)[C@@H]1OC"
  Potency: "26.6 µM (active)"
- compound: "CC(C)C(O)(c1ccc(OC(F)(F)F)cc1)c1cncnc1 (stereo unspecified)"
  Potency: "inactive"
- compound: "Cc1ccc(CO)cc1"
  Potency: "inactive"
- compound: "Nc1ccc(N=Nc2ccccc2)c(N)c1"
  Potency: "59.8 µM (active)"
- compound: "CC(=O)OCCN(CCOC(C)=O)c1ccc(N=Nc2ccc([N+](=O)[O-])cc2C#N)cc1"
  Potency: "54.5 µM (active)"
- compound: "CN(C)CCN1C(=O)c2ccccc2N(C)c2ccccc21"
  Potency: "inactive"
- compound: "CCOC(=O)/C=C/C(=O)OCC"
  Potency: "inactive"
